System: HCT-116 colon
Procedure Summary: NCI tumour cell line growth inhibition, 48 h
Measured Parameter: TGI

Recorded TGI of CC1(C)OCC2OC(n3cnc4c(N)nc(Cl)nc43)C(OS(C)(=O)=O)C2O1 (configuration not stated) , please.
> 100 µM

// repeat for Cc1ccc(/C=c2\c(=O)[nH]c3nc4ccccc4c(=O)n23)cc1 and report
> 100 µM

// repeat for COc1cccc(N2CC(O)=C(c3nc4ccccc4s3)C2=N)c1 and report
> 47.2 µM

// repeat for C1=CC2C(C3CN(c4ccccc4)N=C13)C1C3C4C=CC21C=CC43 (configuration not stated) and report
> 100 µM

// repeat for O=S(=O)(O)c1cc(S(=O)(=O)O)c2cc(N=Nc3ccc(N=Nc4ccc(/C=C/c5ccc(N=[N+]([O-])c6ccc(/C=C/c7ccc(N=Nc8ccc(N=Nc9ccc%10cc(S(=O)(=O)O)cc(S(=O)(=O)O)c%10c9)cc8)cc7S(=O)(=O)O)c(S(=O)(=O)O)c6)cc5S(=O)(=O)O)c(S(=O)(=O)O)c4)cc3)ccc2c1 and report
> 100 µM

// repeat for O=C(CC(=O)N1N=C(c2ccccc2)C(N=Nc2ccc(S(=O)(=O)CCOS(=O)(=O)O)cc2)C1=O)Nc1ccc(Cl)cc1 (configuration not stated) and report
> 100 µM

// repeat for CCCCCCCCCCCC(=O)N(CCCCCCCCC)CC(O)C(O)C(OC1OC(CO)C(O)C(O)C1O)C(O)CO (configuration not stated) and report
32.8 µM

---

Tested on: UACC-257 melanoma
Procedure Summary: NCI tumour cell line growth inhibition, 48 h
Rule: TGI of 30 µM or more gives label 1; anything lower gives label 0.

# check: TGI of Cc1cc2nc3c(C#N)c(C)c(CCCl)c(Cl)n3c2cc1C is greater than or equal to 30 µM
label 0

// repeat for COP(=O)(CP(=O)(OC)OCCC(C)CCC=C(C)C)OC (stereo not given) and report
label 1

// repeat for COc1ccc(NC(=O)CSC(=O)c2ccccc2)c(SCCSSCCSc2cc(OC)ccc2NC(=O)CSC(=O)c2ccccc2)c1 and report
label 1

// repeat for N#C/C(=C\c1ccc[nH]1)c1cc(-c2ccc(Cl)cc2)nn1-c1ccccc1 and report
label 1

// repeat for Cc1nc(N)c(N2CCN(S(=O)(=O)N(Cc3ccccc3)Cc3ccccc3)CC2)c(=O)[nH]1 and report
label 1

// repeat for COc1nn(C)cc1Nc1nccc(-c2c[nH]c3c(NC(=O)[C@@H](C)N4CCN(C)CC4)cccc23)n1 and report
label 1

// repeat for N=C1C=CC(=C(c2ccc(N)cc2)c2ccc(N)cc2)C=C1 and report
label 0

// repeat for CCC[N+](C)(C)CCCNC(=O)c1c(O)c2ccccc2[nH]c1=O and report
label 1

// repeat for CC12CCC(C1)C(C)(C)C2OC(=O)c1ccccc1N (stereo not given) and report
label 0

// repeat for Nc1nc2cc(Cl)ccc2n1N and report
label 1

// repeat for CCCCCCCCCC1CC(=O)OC2=C1C(=O)CCC2 (stereo not given) and report
label 1

// repeat for COc1cc(C2c3cccc4cccc(c34)C3CCC(=O)N32)cc(OC)c1O (stereo not given) and report
label 1

// repeat for N#CC1=C(O)NC(O)=C(C#N)C1c1c(Cl)cccc1Cl and report
label 1

// repeat for O=[N+]([O-])c1c(O)c2nonc2c2nn(-c3ccccc3)nc12 and report
label 1

// repeat for CCOC(=O)N1CCC(N=C2CSc3nnc(-c4cc(C(F)(F)F)cc(C(F)(F)F)c4)n3N2)CC1 and report
label 0

// repeat for OC(c1cc(C(F)(F)F)nc2c(Cl)cc(Cl)cc12)C1CCCCN1 (stereo not given) and report
label 1

// repeat for O=c1c(O)c(-c2ccccc2)oc2c(CP(=O)(O)O)cccc12 and report
label 1

// repeat for CC1(c2ccc(F)cc2)C2C(=O)NC(=O)C1C(=O)NC2=O (stereo not given) and report
label 1

// repeat for C/C(=N\N=C(N)N)C(CN1CCOCC1)C(c1ccccc1)c1c(O)c2ccccc2oc1=O (stereo not given) and report
label 1

// repeat for COC(=O)Nc1nc2ccc(C(=O)c3cccc(I)c3)cc2[nH]1 and report
label 1

// repeat for CC1(C)CC(=O)C(CC2C(=O)CCCC2=O)C(=O)C1 and report
label 1

// repeat for CC1CN(c2cc3c(cc2F)c(=O)c(C(=O)O)cn3-c2ccc(N3CCN(C)CC3)cn2)CC(C)N1 (stereo not given) and report
label 1

// repeat for COc1cc2nc(-c3cccs3)nc(Nc3ccccc3C(=O)NN)c2cc1OC and report
label 1

// repeat for COc1cc2c(cc1OC)C(Cl)C(c1ccc(Br)cc1)=C2Cl (stereo not given) and report
label 1

// repeat for CC1=C(CCC(C)CO)O[C@H]2C[C@H]3[C@@H]4CC[C@H]5C[C@@H](O)CC[C@]5(C)[C@H]4CC(=O)[C@]3(C)[C@@H]12 (stereo not given in full) and report
label 1

// repeat for COc1cc2ncnc(Oc3ccc(NC(=O)Nc4ccc(CN5CCOCC5)c(C(F)(F)F)c4)c4ccccc34)c2cc1OC and report
label 0

// repeat for CC(NNC(=S)N1CCN(c2ccccn2)CC1)c1nccc2ccccc12 (stereo not given) and report
label 0

// repeat for COC(=O)[C@]1(C)CCC[C@@]2(C)C3=C(CC[C@H]12)C[C@@H](CC(OC(C)=O)OC(C)=O)[C@@H](C)C3 and report
label 0

// repeat for CCN(CC)/N=C\c1c2ccccc2cc2ccccc12 and report
label 1

// repeat for CC(C)(C)NCC(O)c1ccccc1Cl (stereo not given) and report
label 1

// repeat for COc1ccc(/C(=N/O)c2ccccc2C2=Nc3ccccc3C(NCc3ccccc3)O2)cc1C (stereo not given) and report
label 1

// repeat for CN1CCN(Cc2ccc(NC(=O)c3cncc(C#Cc4ccc(N)nc4)c3)cc2C(F)(F)F)CC1 and report
label 0

// repeat for Cc1ccc(NC(=O)COc2ccc(Cl)cc2)cc1Cl and report
label 1

// repeat for Nc1ccc(C#Cc2ccccc2C#CCCCCO)cc1 and report
label 1

// repeat for Cc1cn(C2CC(O)C(Cn3nncc3Cn3nc(Br)c(=O)[nH]c3=O)O2)c(=O)[nH]c1=O (stereo not given) and report
label 1

---

System: SW-620 colon
Procedure Summary: NCI tumour cell line growth inhibition, 48 h
I'd be grateful if you could share measured TGI for these entries.

Recorded TGI of CCOC(=O)C1=C(Nc2ccc(OC)cc2)C(N)=NC1=N , please.
> 100 µM

// repeat for C=C(C)C1(Sc2ccc(OC)cc2)CC1 and report
> 100 µM

// repeat for CCCCCCCCN(CCCCCCCC)CC(O)c1cc(-c2ccccc2)nc2ccc(OC)cc12 (configuration not stated) and report
> 100 µM

// repeat for COC(=O)NC(Cc1ccccc1)NC(=O)OC(C)(C)C (configuration not stated) and report
> 100 µM

// repeat for COc1ccc(C(C2=C(O)CC(C)OC2=O)C2=C(O)CC(C)OC2=O)cc1 (configuration not stated) and report
> 100 µM

// repeat for CC(C)(C)OC(=O)N1C(=O)C2CCCC21 (configuration not stated) and report
> 100 µM

// repeat for O=S(=O)(O)c1ccc(O)c(N=Nc2c(O)ccc3ccccc23)c1 and report
> 100 µM

// repeat for OCc1ccc2c(c1)CC1(Cc3ccccc3C1)C2 and report
39 µM

// repeat for CCC(O)CCCCCCCCCCCCCCC(=O)O (configuration not stated) and report
> 100 µM

// repeat for CCOC(=O)Cc1[nH]c(C(=O)c2ccccc2)cc1C(=O)c1ccccc1 and report
> 100 µM

// repeat for COc1ccc2c3ccnc(C(F)(F)F)c3n(CCCCN)c2c1 and report
14.6 µM

// repeat for CCOC(=O)c1nc2ccccc2nc1Nc1ccc(C(=O)OC)s1 and report
> 100 µM

// repeat for CC1(C)C2CC3C(C)(C2)C31c1cc(Cl)ccc1N (configuration not stated) and report
28.2 µM

// repeat for CN(C(=O)C(C)(C)C)c1ccccc1I(=O)=O and report
> 100 µM

// repeat for COc1cc2nc(-c3cccs3)nc(N3CCN(c4ccccc4)CC3)c2cc1OC and report
> 100 µM

// repeat for CC1Cc2c(Cl)ncnc2N(C)c2ccccc21 (configuration not stated) and report
11.2 µM

// repeat for C=CCC1(CN(C)C)CC/C(=C\c2ccc3c(c2)OCO3)C1=O (configuration not stated) and report
> 100 µM

// repeat for O=C1/C=C/[C@@H](O)[C@@H]2C[C@@H](O)C[C@H]2/C=C/CCC[C@H](CCO)O1 and report
0.646 µM

// repeat for CCN(CC)CCOc1nc2ccccc2c2c1-c1ccc(OC)cc1C2=O and report
1.58 µM

// repeat for CC(=O)C1=C(C)N(Cc2ccccc2)C2(O)C=CC(=O)C3=C(O)c4ccccc4C(=O)C312 (configuration not stated) and report
5.22 µM

// repeat for COc1ccc(C(=O)/C=C/c2ccc(OCc3cccc(C(F)(F)F)c3)c(OC)c2)cc1OC and report
> 1000 µM

// repeat for CCOc1ccccc1N=NC1C(=O)N(C(=O)CC(=O)Nc2ccccc2C)N=C1C (configuration not stated) and report
> 100 µM

// repeat for COC(=O)/C1=C/C=C\C[C@@]2(C)CC(c3ccoc3)OC(=O)[C@@H]2CC[C@H]1C (some centres not stated) and report
> 25 µM

// repeat for CC1=C(CCC(C)CO)O[C@H]2C[C@H]3[C@@H]4CC[C@H]5C[C@@H](O)CC[C@]5(C)[C@H]4CC(=O)[C@]3(C)[C@@H]12 (some centres not stated) and report
> 100 µM

// repeat for N#CC1=C(O)NC(O)=C(C#N)C1c1c(Cl)cccc1Cl and report
> 100 µM

// repeat for COC(=O)N[C@@H]1C[C@H]2CC[C@]1(O[Si](C(C)C)(C(C)C)C(C)C)C(=O)C2 and report
> 100 µM

// repeat for Cc1[nH]nc(C(F)(F)F)c1Cc1sc2c(c1C(=O)N1C[C@](C)(O)CO1)c(=O)n(C)c(=O)n2C(C)C and report
> 100 µM

// repeat for [N-]=[N+]=Nc1cc(=O)[nH]c2ccccc12 and report
> 100 µM

// repeat for O=[N+]([O-])c1c(O)c2nonc2c2nn(-c3ccccc3)nc12 and report
> 100 µM

// repeat for CCCCCCCCCC1CC(=O)OC2=C1C(=O)CCC2 (configuration not stated) and report
> 100 µM

// repeat for N#CCCN(CCCCN(CCC#N)C(=O)Nc1ccccc1)C(=O)Nc1ccccc1 and report
> 100 µM

// repeat for Cc1ccc(/C=C2\CCCCC2=O)cc1 and report
> 100 µM

// repeat for CCOC(=O)N1CCC(N=C2CSc3nnc(-c4cc(C(F)(F)F)cc(C(F)(F)F)c4)n3N2)CC1 and report
4.27 µM

// repeat for COc1cc2c(cc1OC)C(Cl)C(c1ccc(Br)cc1)=C2Cl (configuration not stated) and report
23.4 µM

// repeat for CCCCCCc1ccc(CCCCCCCC(=O)O)o1 and report
> 100 µM

// repeat for COc1cc2c3c(n(C)c(=O)c2cc1OC)-c1cc2c(cc1/C3=C\CCCCl)OCO2 and report
> 100 µM

// repeat for COc1cccc(N2CC(O)=C(c3nc4ccccc4s3)C2=N)c1 and report
> 100 µM

// repeat for CC(=O)OC1CC2(C)C(=CC1C1SCCS1)CCC1C2CCC2(C)C(OC(C)=O)CCC12 (configuration not stated) and report
> 100 µM

// repeat for CC1(C)CC(=O)c2c(N)n[nH]c2C1 and report
> 100 µM

// repeat for C[C@]12CC[C@H]3[C@@H](CC[C@]4(O)C[C@@H](O)CC[C@]34C=O)[C@@]1(O)CC[C@@H]2C1=CC(=O)OC1 and report
2.79 µM

// repeat for C=C1C(=O)O[C@@H]2/C=C(/C)[C@@H](OC(C)=O)C[C@@H](O)/C(C)=C\[C@@H](OC(=O)[C@]3(C)O[C@@H]3C)[C@@H]12 and report
18.5 µM

// repeat for CC(C)[C@@H](C(=O)O[C@@H]1/C=C/C(=O)O[C@@H](C)CCC/C=C/[C@@H]2C[C@H](O)C[C@H]21)N(C)C and report
20.7 µM

Measured values drawn from PubChem BioAssay (NCI) for this set.
